# Study target: Glutamate NMDA receptor (Rattus norvegicus) (UniProt P35439+Q00959+Q00960+Q00961+Q62645+Q8VHN2+Q9R1M7)
# Experimental details: Inhibition of N-methyl-D-aspartate glutamate receptor was measured in oocytes expressing cloned rat brain receptor subunits (NR1A/2C)
# Assay type: cell-based
# Measurement context: Oocyte
Note to self: use yes only for Kb readings below 40 nM; a reading exactly at 40 nM still gets no.

Compound: CCC1c2c(O)cc(=O)c(=O)[nH]c2C[C@H](Cl)[C@H]1Cl (some centres not stated)
Class name: yes
--
Compound: O=c1cc(O)c2c([nH]c1=O)C[C@H](Cl)[C@@H](Cl)C2
Class name: no
--
Compound: O=c1cc(O)c2c([nH]c1=O)C1CCC2C1 (configuration not stated)
Class name: no
--
Compound: CC1Cc2[nH]c(=O)c(=O)cc(O)c2CC1C (configuration not stated)
Class name: no
--
Compound: CC1c2c(O)cc(=O)c(=O)[nH]c2C[C@H](Cl)[C@H]1Cl (some centres not stated)
Class name: yes
--
Compound: O=c1cc(O)c2c([nH]c1=O)CCCC2
Class name: no
--
Compound: O=c1cc(O)c2c([nH]c1=O)C1CCC2CC1
Class name: no

* * *

# Experimental details: Selectivity index measured as the kb ratio of AMPA to that of NMDA.
Listing of recorded Selectivity index by entry.

Compound: O=c1cc(O)c2c([nH]c1=O)C1CCC2C1 (configuration not stated)
Selectivity index: 75

Compound: O=c1cc(O)c2c([nH]c1=O)C1CCC2CC1
Selectivity index: 300

Compound: CC1Cc2[nH]c(=O)c(=O)cc(O)c2CC1C (configuration not stated)
Selectivity index: 44

Compound: O=c1cc(O)c2c([nH]c1=O)C[C@H](Cl)[C@@H](Cl)C2
Selectivity index: 19

Compound: CCC1c2c(O)cc(=O)c(=O)[nH]c2C[C@H](Cl)[C@H]1Cl (some centres not stated)
Selectivity index: 260

Compound: O=c1cc(O)c2c([nH]c1=O)CCCC2
Selectivity index: 31

Compound: CC1c2c(O)cc(=O)c(=O)[nH]c2C[C@H](Cl)[C@H]1Cl (some centres not stated)
Selectivity index: 120

* * *

# Study target: Glutamate receptor ionotropic, AMPA (Rattus norvegicus) (UniProt P19491+P19492+P19493+P19490)
# Experimental details: Inhibition of Ionotropic glutamate receptor AMPA-preferring non-NMDA receptors was measured in oocytes expressing rat brain poly(A)+ RNA isolated from the cerebral cortex.
# Assay type: cell-based
# Measurement context: Oocyte
Note to self: use T only for Kb readings below 5 µM; a reading exactly at 5 µM still gets F.

Compound: O=c1cc(O)c2c([nH]c1=O)C1CCC2CC1
Class name: F
--
Compound: CCC1c2c(O)cc(=O)c(=O)[nH]c2C[C@H](Cl)[C@H]1Cl (stereo partly specified)
Class name: T
--
Compound: O=c1cc(O)c2c([nH]c1=O)CCCC2
Class name: F
--
Compound: CC1c2c(O)cc(=O)c(=O)[nH]c2C[C@H](Cl)[C@H]1Cl (stereo partly specified)
Class name: T
--
Compound: CC1Cc2[nH]c(=O)c(=O)cc(O)c2CC1C (stereo unspecified)
Class name: F
--
Compound: O=c1cc(O)c2c([nH]c1=O)C[C@H](Cl)[C@@H](Cl)C2
Class name: T
